Tested on: M19-MEL
Assay: NCI tumour cell line growth inhibition, 48 h
The source made the active and inactive calls. Cut-off read from the data, not from the text of the source: active = GI50 up to about 1.1 µM and inactive = higher.
A correct response names exactly one class from active, inactive

Query string: Please share the test call associated with COc1ccc(CC(C#N)c2cc(OC)c(OC)c(OC)c2)cc1 (stereo not given) .
Result string: active

Query string: Please share the test call associated with [N-]=[N+]=C1C(=O)C2CC3CC(C2)CC1C3 .
Result string: inactive

Query string: Please share the test call associated with O=C1Cc2ccccc2N1/N=C\c1ccc([N+](=O)[O-])cc1 .
Result string: inactive

Query string: Please share the test call associated with CN(C)CCNC(=O)c1cccc2ccc(-c3ccc(Br)cc3)nc12 .
Result string: inactive

* * *

Could you please report measured GI50 for the items listed next?
System: HCT-15

Query string: Read off the recorded GI50 for CCCCCCCCCCCCCP(=O)(NCC(N)=O)OCC (stereo not given)
Result string: 17.8 µM

Query string: Read off the recorded GI50 for C=C1C[C@H](O)[C@H]2C(C[Se]c3ccccc3)C(=O)O[C@@H]2[C@H]2[C@H](C)C(O)C[C@@H]12 (stereo not given in full)
Result string: 13.8 µM

Query string: Read off the recorded GI50 for C=C[C@]1(C)CC(O)C2C(=C)C(=O)OC2[C@H]1C(=C)C=O (stereo not given in full)
Result string: 2.06 µM

Would you mind giving GI50 for every compound in the list below?
1. COc1ccc(C(=O)/C=C/c2ccc(OCCSCCCCCCCCCCSCCOc3ccc(/C=C/C(=O)c4ccc(OC)c(OC)c4)cc3)cc2)cc1OC
2. O=C(CCC(=O)Nc1cccc(Cl)c1)CC(=O)c1ccc(F)cc1

Result string:
> 100 µM
> 100 µM

* * *

System: OVCAR-4
Test: NCI tumour cell line growth inhibition, 48 h
Activity calls are given as the source filed them. Cut-off read from the data, not from the text of the source: active = GI50 up to about 1.1 µM and inactive = higher.
Assay metric: GI50

Would you please look over these solved cases?
Query string: Read off the recorded GI50 for Cc1cc(C)c2c(c1)CN1CN2Cc2cc(C)cc(C)c21
Result string: 18.3 µM (inactive)

Query string: Read off the recorded GI50 for CC(C)N(C(=O)C12C3C4C1C1C2C3C41C(=O)N(C(C)C)C(C)C)C(C)C (stereo unspecified)
Result string: > 50 µM (inactive)

Query string: Read off the recorded GI50 for CC(C)C(C/C=C1\CC(CO)(COC(=O)c2ccccc2)OC1=O)C(C)C (stereo unspecified)
Result string: 18.8 µM (inactive)

Query string: Read off the recorded GI50 for N#C/C(=C\c1cc(F)cc(F)c1)c1ccccn1
Result string: 45.8 µM (inactive)

Query string: Read off the recorded GI50 for O=[N+]([O-])c1cnc(N(CCO)CCO)s1
Result string: > 100 µM (inactive)

New cases:
Query string: Read off the recorded GI50 for COC(=O)C1C(C(=O)OC)N(Cc2ccccc2)C(=O)N1Cc1ccccc1 (stereo unspecified)
Result string: > 100 µM (inactive)

* * *

Test system: Malme-3M
Experiment: NCI tumour cell line growth inhibition, 48 h
Activity calls are given as the source filed them. Cut-off read from the data, not from the text of the source: active = GI50 up to about 1.1 µM and inactive = higher.
Assay metric: GI50

Would you please look over these solved cases?
Query string: Read off the recorded GI50 for CCCNC(=O)C1C(=O)C(=O)N(CCC)C1=O (stereo not given)
Result string: > 100 µM (inactive)

Query string: Read off the recorded GI50 for C=CCOc1ccc(C(=N/NC(=O)c2ccccc2)/N=N/c2ccc(C)cc2)cc1OC
Result string: 21.1 µM (inactive)

Would you mind giving GI50 for every compound in the list below?
1. COc1cc2c(c(OC)c1)[C@H](C)N(Cc1ccccc1)C(C)C2 (stereo not given in full)
2. Cc1c(C(=O)/C=C/c2ccc3c(c2)OCO3)[n+]([O-])c2ccccc2[n+]1[O-]
3. Cc1cc(N(CCC#N)CCC#N)ccc1C(/N=N/c1ccc(Cl)cc1)=N\NC(=O)c1ccccc1

Result string:
1. 62.4 µM (inactive)
2. 89.5 µM (inactive)
3. 20.4 µM (inactive)

* * *

Tested on: COLO 205
Assay: NCI tumour cell line growth inhibition, 48 h
The source made the active and inactive calls. Rule as the data show it: active = GI50 up to about 1.1 µM and inactive = higher.
Assay metric: GI50

Query string: Read off the recorded GI50 for C=C1C(=O)O[C@H]2C1C[C@H](O)[C@@]1(C)OC1CC[C@@]1(C)O[C@H]21 (stereo partly drawn)
Result string: 4.88 µM (inactive)

Query string: Read off the recorded GI50 for COC1=C(N)C(=O)c2nc(C)ccc2C1=O
Result string: 1.79 µM (inactive)

The record that follows has no GI50 shown yet.
Query string: Read off the recorded GI50 for CC1SC2=NC3=C(c4ccccc4C3=O)C(c3ccc(F)cc3)N2C1=O (stereo not drawn)
Result string: > 100 µM (inactive)

* * *

Tested on: SNB-19
Assay: NCI tumour cell line growth inhibition, 48 h
Active and inactive are the calls of the source. Rule as the data show it: active = GI50 up to about 1.1 µM and inactive = higher.
Assay metric: GI50

Would you please look over these solved cases?
Query string: Read off the recorded GI50 for Cn1c(=O)c2c(nc(C[N+]3([O-])CCOCC3)n2C)n(C)c1=O
Result string: > 100 µM (inactive)

Query string: Read off the recorded GI50 for CC(C)(C)c1ccc(C(C)(C)C)c(N2C(=O)[C@@H]3[C@@H]4C=C[C@@H](C4)[C@]3(C)C2=O)c1
Result string: > 100 µM (inactive)

Query string: Read off the recorded GI50 for Oc1cccc(C2SCc3nc4ccccc4n32)c1 (configuration not stated)
Result string: > 100 µM (inactive)

Query string: Read off the recorded GI50 for COc1ccc(Nc2nc(C#N)c(N)s2)cc1
Result string: 49 µM (inactive)

Query string: Read off the recorded GI50 for COc1ccc(/C(Cl)=C(\C=O)c2ccccc2)cc1OC
Result string: 27.9 µM (inactive)

Would you mind giving GI50 for every molecule in the list below?
1. CC(=O)CC(=O)NC=O
2. COc1cc2ccc(C(=O)O)cc2cc1OC
3. CN(C)c1ccc(/C=C(/NC(=O)c2ccccc2)c2nc3cc(Cl)ccc3[nH]2)cc1
4. CC(=O)NC(Cc1ccc(OP(=O)(OCc2ccc([N+](=O)[O-])o2)N(C)CCCCCl)cc1)C(=O)NC(C)c1ccc(OCC2CCCCC2)c(C(N)=O)c1 (configuration not stated)
5. O=c1[nH]c(NCc2cccnc2)nc2[nH]cnc12
6. Cn1c(=S)c2nc(SCCCc3ccccc3)[nH]c2n(C)c1=O
7. CN(C)CCNCCN

Result string:
1: > 100 µM (inactive); 2: > 100 µM (inactive); 3: 45.1 µM (inactive); 4: 3.9 µM (inactive); 5: > 100 µM (inactive); 6: 16.6 µM (inactive); 7: > 100 µM (inactive)

Would you mind giving GI50 for every molecule in the list below?
1. O=C(OCc1ccccc1)N1CCCc2c(n(S(=O)(=O)c3ccccc3)c3ccccc23)C1
2. Nc1nc(N)c2ncn(CC(CO)CC(c3ccccc3)P(=O)(O)O)c2n1 (configuration not stated)
3. COc1cc2c(NCCCCCCO[N+](=O)[O-])ncnc2c(OC)c1OC
4. CN1CCN(c2ccc3c(c2)NCC(=O)N3)CC1
5. Cn1c2ccc(C3=NCCN3)cc2c2cc(C3=NCCN3)ccc21
6. Cn1c(=O)c2c(ncn2Cc2ccc(O)c([N+](=O)[O-])c2)n(C)c1=O
7. C=CCOc1ccc(C(=N/NC(=O)c2ccccc2)/N=N/c2ccc(C)cc2)cc1OC

Result string:
1. > 100 µM (inactive)
2. > 100 µM (inactive)
3. 66.5 µM (inactive)
4. > 100 µM (inactive)
5. 42.8 µM (inactive)
6. > 100 µM (inactive)
7. 50 µM (inactive)

* * *

System: SNB-75
Assay: NCI tumour cell line growth inhibition, 48 h
Calls of active or inactive are those of the source. Cut-off read from the data, not from the text of the source: active = GI50 up to about 1.1 µM and inactive = higher.
Assay metric: GI50

Query string: Read off the recorded GI50 for COc1ccc2c(c1)CCCN1CCc3ccccc3C21 (stereo unspecified)
Result string: 16.4 µM (inactive)

Query string: Read off the recorded GI50 for Cc1ccc2c(O)cc(-c3ccc(Cl)cc3)nc2n1
Result string: 8.24 µM (inactive)

Query string: Read off the recorded GI50 for CC(C)C(C/C=C1\CC(CO)(COC(=O)c2ccccc2)OC1=O)C(C)C (stereo unspecified)
Result string: 15.3 µM (inactive)

Query string: Read off the recorded GI50 for CC(C)CC(C(N)=O)C(=O)NC(Cc1ccccc1)NC(=O)CNC(=O)C(C)NC(=O)C(N)Cc1ccc(O)cc1 (stereo unspecified)
Result string: > 100 µM (inactive)

Query string: Read off the recorded GI50 for CC(=O)OC(C)(C)CCC(=O)[C@](C)(O)[C@H]1[C@H](O)C[C@@]2(C)[C@@H]3CC=C4C(C)=C(OC5OC(CO)C(O)C(O)C5O)C(=O)C[C@@H]4[C@]3(C)C(=O)C[C@]12C (stereo partly specified)
Result string: > 100 µM (inactive)

Would you mind giving GI50 for every compound in the list below?
1. CSc1nc2c(c(=O)[nH]1)N=C(c1ccccc1)CC(c1ccccc1)N2 (stereo unspecified)
2. CC(C)N(C(=O)C12C3C4C1C1C2C3C41C(=O)N(C(C)C)C(C)C)C(C)C (stereo unspecified)
3. OCc1cc2c([nH]c3ccccc32)c(C(O)CO)n1 (stereo unspecified)

Result string:
11.7 µM (inactive)
> 50 µM (inactive)
> 100 µM (inactive)

Sourced from ChEMBL document CHEMBL1201862
